- measured.target: CD28 (Homo sapiens, UniProt P10747)
- protocol.text: Flow binding to Jurkat/IL2 reporter cells (CD28)
- Set-up: host or cells: Jurkat cells expressing an IL-2-luciferase reporter
- experimental.parameters: Table E25; linker variants; 33.3 nM; Jurkats (CD28)
attribute.measured: CD28 MFI at 33.3 nM
Form rule: numeric answer, no unit written next to it.

Asked: I am curious: what CD28 MFI at 33.3 nM value has been reported for E35D/M47V/N48K/V68M/K89N delta (protein) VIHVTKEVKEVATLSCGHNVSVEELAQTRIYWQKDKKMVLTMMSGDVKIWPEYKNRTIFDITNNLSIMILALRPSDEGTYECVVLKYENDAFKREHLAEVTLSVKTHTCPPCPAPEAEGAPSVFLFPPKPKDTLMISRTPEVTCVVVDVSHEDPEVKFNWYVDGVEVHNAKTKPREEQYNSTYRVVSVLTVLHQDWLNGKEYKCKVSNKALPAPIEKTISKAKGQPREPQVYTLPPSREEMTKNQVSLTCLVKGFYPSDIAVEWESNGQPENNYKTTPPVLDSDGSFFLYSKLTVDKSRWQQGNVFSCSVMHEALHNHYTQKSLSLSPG ?
Given back: 4678

Origin of values: patent US20220177587A1
